Assay: qHTS Assay for Spectroscopic Profiling in Resorufin Spectral Region
Settings: Compound fluorescence, resorufin region 547/598 nm, buffer
About 25 (0.04%) of roughly 59,000 compounds were called active. No rule for the calls is given here. The sample as a whole holds a higher share of actives than the screen did.
// one of active, inactive, no free text

CCOc1ccccc1/C=c1\sc2nc(-c3ccco3)nn2c1=O    inactive
CCCCNC(=O)c1ccccc1NC(=O)c1ccccc1N(C)S(C)(=O)=O    inactive
CCOCCCN1C(=O)CN(C2CCCCC2)C(=O)C1c1ccc(OCC)c(OC)c1 (stereo unspecified)    inactive
CC(=O)OC(C(=O)NCCc1ccccc1)c1cccnc1 (stereo unspecified)    inactive
Cc1ccc(C)n1C(Cc1ccccc1)C(=O)O (stereo unspecified)    inactive

Given "O=C(Nc1cnn(Cc2ccc(Cl)cc2)c1)C1CCCC1" , state the outcome it received in this test.
inactive

For "NS(=O)(=O)c1cc(Cl)c(Cl)c(S(N)(=O)=O)c1" , which call appears in the assay record?
inactive

What is the recorded call for this molecule in the test? "CN(c1ccccc1)c1ccc(/C=c2\s/c(=C(/C#N)C(=O)C(C)(C)C)n(Cc3ccco3)c2=O)cc1"
active

Field: outcome | Entry: CCC(C)Sc1nc2c(c(=O)[nH]c(=O)n2C)n1CC(O)COc1cccc2ccccc12 (stereo unspecified)
inactive

Short answer needed: outcome of this test for "COc1cc(OC)cc(C(=O)NCCSCc2ccco2)c1" ?
inactive

Fill in: this test's call for "CCOc1ccccc1-n1c(SCC(=O)NCc2ccco2)nnc1-c1ccncc1" is ___
inactive

Every entry's value here was drawn from PubChem BioAssay AID588.
